Provide the recorded Kd for the entries that follow.
# Assayed System: RARα (Homo sapiens, UniProt P10276)
# Sequence (P10276 1-462): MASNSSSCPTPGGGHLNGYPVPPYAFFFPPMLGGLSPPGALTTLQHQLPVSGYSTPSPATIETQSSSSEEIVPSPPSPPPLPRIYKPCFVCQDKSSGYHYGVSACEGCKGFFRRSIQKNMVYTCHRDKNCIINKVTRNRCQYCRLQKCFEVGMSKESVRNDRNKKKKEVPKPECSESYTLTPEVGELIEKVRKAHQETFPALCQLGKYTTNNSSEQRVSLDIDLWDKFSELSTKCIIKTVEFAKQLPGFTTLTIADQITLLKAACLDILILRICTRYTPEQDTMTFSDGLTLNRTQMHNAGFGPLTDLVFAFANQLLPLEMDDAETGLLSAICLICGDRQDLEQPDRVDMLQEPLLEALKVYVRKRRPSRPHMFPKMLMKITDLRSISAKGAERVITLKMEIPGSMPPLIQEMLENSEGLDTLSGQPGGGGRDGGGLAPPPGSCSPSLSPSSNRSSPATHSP
Include the unit after the number when you answer.

Example results:
Item Smiles: Cc1ccc(N2CCC(C)(C)c3ccc(C#Cc4ccc(C(=O)O)cc4)cc32)cc1
Assayed System: RARα (Homo sapiens, UniProt P10276)
Kd: 13 nM

Item Smiles: CC1(C)CCN(c2ccccc2)c2cc(C#Cc3ccc(C(=O)O)cc3)ccc21
Assayed System: RARα (Homo sapiens, UniProt P10276)
Kd: 147 nM

In the following, a different compound is considered.
Per the records, this compound ( Cc1ccc(N2CCC(C)(C)c3ccc(C(=O)Nc4ccc(C(=O)O)cc4)cc32)cc1 ) has Kd equal to 27 nM

Values compiled from patent US5739338A.
